- System: Hepatotoxicity
- testDescription: FDA HLAED, serum glutamic oxaloacetic transaminase (SGOT) increase
- testSettings: human
Kindly supply the reported SGOT Increase - Index Value values for the records listed here.
Form rule: numeric answer, no unit written next to it.

If you can, please state the reported SGOT Increase - Index Value value of COc1cc2c(cc1OC)[C@@H](Cc1cc(OC)c(OC)c(OC)c1)[N+](C)(CCCOC(=O)CC/C=C/CCC(=O)OCCC[N+]1(C)CCc3cc(OC)c(OC)cc3[C@H]1Cc1cc(OC)c(OC)c(OC)c1)CC2.[Cl-].[Cl-] (stereo not given in full) [MIVACURIUM CHLORIDE] .
0

If you can, please state the reported SGOT Increase - Index Value value of CCOC(=O)c1cncn1[C@H](C)c1ccccc1 [ETOMIDATE] .
0

If you can, please state the reported SGOT Increase - Index Value value of CC(C)(C)NC[C@H](O)COc1nsnc1N1CCOCC1 [TIMOLOL] .
0.1

If you can, please state the reported SGOT Increase - Index Value value of CCCc1c2oc(C(=O)O)cc(=O)c2cc2c(=O)cc(C(=O)O)n(CC)c12 [NEDOCROMIL] .
0.5

If you can, please state the reported SGOT Increase - Index Value value of CC(C)NCC(O)COc1ccc(COCCOC(C)C)cc1 (stereo not given) [BISOPROLOL] .
0

If you can, please state the reported SGOT Increase - Index Value value of Nc1nnc(-c2cccc(Cl)c2Cl)c(N)n1 [LAMOTRIGINE] .
4

If you can, please state the reported SGOT Increase - Index Value value of CCN[C@@H](C)Cc1cccc(C(F)(F)F)c1 [DEXFENFLURAMINE] .
1

If you can, please state the reported SGOT Increase - Index Value value of O=c1[nH]c(=O)n([C@H]2C[C@H](O)[C@@H](CO)O2)cc1C(F)(F)F [TRIFLURIDINE] .
0

If you can, please state the reported SGOT Increase - Index Value value of CCCCC(C)(O)C/C=C/[C@H]1[C@H](O)CC(=O)[C@@H]1CCCCCCC(=O)OC (stereo not given in full) [MISOPROSTOL] .
0.8

* * *

- Tested on: Hepatotoxicity
- testDescription: FDA HLAED, gamma-glutamyl transferase (GGT) increase
- testSettings: human
measuredParameter: GGT Increase - Number of Reports

Record excerpt, results attached:
If you can, please state the reported GGT Increase - Number of Reports value of FC(F)OC(Cl)C(F)(F)F (stereo unspecified) [ISOFLURANE] .
< 4

If you can, please state the reported GGT Increase - Number of Reports value of Clc1ccc(CCC(Cn2ccnc2)Sc2c(Cl)cccc2Cl)cc1 (stereo unspecified) [BUTOCONAZOLE] .
< 4

If you can, please state the reported GGT Increase - Number of Reports value of CO[C@H]1/C=C/O[C@@]2(C)Oc3c(C)c(O)c4c(c3C2=O)C2=NC3(CCN(CC(C)C)CC3)NC2=C(NC(=O)/C(C)=C\C=C\[C@H](C)[C@H](O)[C@@H](C)[C@@H](O)[C@@H](C)[C@H](OC(C)=O)[C@@H]1C)C4=O [RIFABUTIN] .
>= 4

If you can, please state the reported GGT Increase - Number of Reports value of Cc1c(OCC(F)(F)F)ccnc1C[S+]([O-])c1nc2ccccc2[nH]1 (stereo unspecified) [LANSOPRAZOLE] .
>= 4

Next:
If you can, please state the reported GGT Increase - Number of Reports value of CCCN1CCCC[C@H]1C(=O)Nc1c(C)cccc1C [ROPIVACAINE] .
< 4

If you can, please state the reported GGT Increase - Number of Reports value of CC(CCc1ccc(O)cc1)NCCc1ccc(O)c(O)c1 (stereo unspecified) [DOBUTAMINE] .
< 4

Taken from ChEMBL document CHEMBL1697781.
